# SYSTEM UNDER TEST: human urokinase (uPA) binding to its specific receptor (uPAR) (Homo sapiens, UniProt Q03405)
# Sequence (Q03405 23-305 limits assumed): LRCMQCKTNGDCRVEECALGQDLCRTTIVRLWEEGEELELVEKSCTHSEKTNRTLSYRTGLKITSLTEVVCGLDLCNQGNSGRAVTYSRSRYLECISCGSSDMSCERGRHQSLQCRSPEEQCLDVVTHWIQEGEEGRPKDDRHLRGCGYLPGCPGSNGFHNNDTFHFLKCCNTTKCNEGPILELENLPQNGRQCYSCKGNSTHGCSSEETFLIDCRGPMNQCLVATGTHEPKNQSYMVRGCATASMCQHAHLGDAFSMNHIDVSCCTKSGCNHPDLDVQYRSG
# PROTOCOL DESCRIPTION: ELISA-Test: inhibition of uPA binding to its specific receptor (uPAR)
# ASSAY SETUP: synthetic or commercially available porphyrins, read-out: IC50 (µg/ml) ELISA (converted)
ENDPOINT NAME: IC50

COC(=O)CCC1=C(C)c2cc3[nH]c(cc4nc(cc5[nH]c(cc1n2)c(CCC(=O)OC)c5C)C(S(=O)(=O)O)=C4C)c(S(=O)(=O)O)c3C = 1820 nM
CCOC(=O)CCC1=C(C)c2cc3[nH]c(cc4nc(cc5[nH]c(cc1n2)c(C)c5CCC(=O)OCC)C(CCC(=O)OCC)=C4C)c(C)c3CCC(=O)OCC [Coproporphyrin III tetraethylester] = 678 nM
O=S(=O)(O)c1ccc(-c2c3nc(c(-c4ccc(S(=O)(=O)O)cc4)c4ccc([nH]4)c(-c4ccc(S(=O)(=O)O)cc4)c4nc(c(-c5ccc(S(=O)(=O)O)cc5)c5ccc2[nH]5)C=C4)C=C3)cc1 = 214 nM
